experiment.description: Components of the Cytosolic LPS Sensing Pathway: Gene Identification via Genome-wide siRNA Screen;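 further: robust z of the log signal after scaling to non-targeting control siRNA wells of the plate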
assay.context: RAW264.7 macrophages, IL-1a HTRF, actives lie on both sides, screened at 100 nM (by protocol), cells primed 5 h with Pam3CSK4 first
Method: Non-canonical inflammasome activation by cytosolic LPS is a critical component of the host response to Gram-negative bacterial infection, however we lack a comprehensive understanding of the cellular processes that control this pathway. […] Lipofectamine RNAiMAX Transfection Reagent ([…]; Invitrogen) was added in […] serum-free, antibiotic-free media to plate wells using a Thermo Scientific Matrix WellMate and Microplate Stacker. […] The plates were read on an EnVision plate reader (PerkinElmer). […]
The campaign covered roughly 53,000 sequences. About 3,700 (7%) were called active.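 How the source made its calls: active means gene knockdowns whose robust z-score for IL-1 alpha signal is at least 2 or at most -2, so actives lie on both sides; inactive means the rest.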 This excerpt belongs to a sample that is enriched for actives.
Can you answer with just one of these options? true (1) = active, false (0) = inactive

Exam item: Would you mind telling me which call this test gave GCAGACUCCCAUGUGGAUUTT against 1700067K01Rik ?
Marked response: false (0)

Exam item: Would you mind telling me which call this test gave GGCCUAUCUUGUUUAUUUGTT against Tgtp1 ?
Marked response: false (0)

Exam item: Would you mind telling me which call this test gave GCUGUGACUCUACUGGAGGTT against Zfp397 ?
Marked response: false (0)

Exam item: Would you mind telling me which call this test gave GCGAAAAAGAUCGUCCUUGTT against Polr3a ?
Marked response: false (0)

Exam item: Would you mind telling me which call this test gave GCCACGACAACAAAUCCCATT against Lbr ?
Marked response: true (1)

Exam item: Would you mind telling me which call this test gave CGGACAAGAUAAAGUGUGUTT against Lypd9 ?
Marked response: false (0)

Exam item: Would you mind telling me which call this test gave GGAAAGAUGUGGAAGUAAATT against Erc1 ?
Marked response: false (0)

Exam item: Would you mind telling me which call this test gave GGCUAUCUGAUUUUUGUUGTT against Nlrp3 ?
Marked response: false (0)

Exam item: Would you mind telling me which call this test gave GCCAAUAAAGUCGGUGAAATT against H2aj ?
Marked response: false (0)

Exam item: Would you mind telling me which call this test gave GCCCUUUCGCCUAUGGUUUTT against Tedc1 ?
Marked response: false (0)

Exam item: Would you mind telling me which call this test gave GCAACUGGUGAUAAGGUGUTT against Flywch1 ?
Marked response: false (0)

Exam item: Would you mind telling me which call this test gave GGAUCAGUGCCUUUGGCUATT against Rhoc ?
Marked response: false (0)

Exam item: Would you mind telling me which call this test gave GGAGUGUUUGAGAAAUACCTT against Pnpla7 ?
Marked response: true (1)

Exam item: Would you mind telling me which call this test gave GGUGAUACCUCUGUCCUGGTT against Exosc5 ?
Marked response: false (0)

Exam item: Would you mind telling me which call this test gave GGAGCUGGAGUACGACUACTT against Tmem30b ?
Marked response: false (0)

Exam item: Would you mind telling me which call this test gave GGAAUUGGGUAGUACAAAATT against Irak1 ?
Marked response: false (0)

Exam item: Would you mind telling me which call this test gave GGAGUAUGAAUUUGUGACUTT against Arhgdig ?
Marked response: false (0)

Exam item: Would you mind telling me which call this test gave GGAGCUAUACUGCUUUUCCTT against Mtmr7 ?
Marked response: false (0)

Exam item: Would you mind telling me which call this test gave GGAGAUCUGUGAUGAGGUGTT against Nudt22 ?
Marked response: true (1)

Exam item: Would you mind telling me which call this test gave GCAUUCAUUGAUCAAUUCUTT against Zbtb6 ?
Marked response: true (1)

Exam item: Would you mind telling me which call this test gave GCACCUUCCAUCGGAAUGCTT against Tyw5 ?
Marked response: false (0)

Exam item: Would you mind telling me which call this test gave GGAAAGAUUCCGAACAAUUTT against Rab8b ?
Marked response: true (1)

Exam item: Would you mind telling me which call this test gave GGUGUGUUUUGUAUUGAUUTT against Olfr843 ?
Marked response: false (0)

Exam item: Would you mind telling me which call this test gave GGCAUAGCUCAGUGAUAGCTT against Tmem19 ?
Marked response: false (0)
